tested on: Krebszellen; experiment: Mean IC50 over all cancer cell lines; format: cell-based; conditions: read-out: IC50 Krebszellen (Durchschnitt ± SD)
metric: IC50
Answer with the number, then the unit.

Solved entries:
CCCCCCCCCCCCCCCCCC(=O)O[Si](CC)(CC)OC(=O)CCCCCCCCCCCCCCCCC [Si13, Di (octadecanoyloxy) diethylsilan] = 17.3 µg/mL
CCCCCCCCCCCCCCCCC(=O)O[Si](CC)(CC)OC(=O)CCCCCCCCCCCCCCCC [Si1, Di (heptadecanoyloxy) diethylsilan] = 33.2 µg/mL
CCCCCCCCCCCCCCCC(=O)O[Si](CC)(CC)OC(=O)CCCCCCCCCCCCCCC [Si11, Di (hexadecanoyloxy) diethylsilan] = 21.1 µg/mL

Alright, here's another compound for you.
Item CCCCCCCCCCCCCCC(=O)O[Si](OC(=O)CCCCCCCCCCCCCC)(c1ccccc1)c1ccccc1 [Si5, Di (pentadecanoyloxy) diphenylsilan] has what recorded IC50?
34 µg/mL

###

system: Kälber-Aortenendothelzellinie BKEz-7; test: tissue or blood; type: cell-based; details: suspensions, 48 Stunden bei 37°C
metric: IC50 (µM)
Write it as a number; the unit µM goes unstated.

Record excerpt, results attached:
CCCCCCCCCCCCCCCCCC(=O)O[Si](C)(C)OC(=O)CCCCCCCCCCCCCCCCC = 495
CCCCCCCCCCCC(=O)O[Si](OC(=O)CCCCCCCCCCC)(c1ccccc1)c1ccccc1 = 36
CCCCCCCCCCCCCCCCCC(=O)O[Si](OC(=O)CCCCCCCCCCCCCCCCC)(c1ccccc1)c1ccccc1 = 84

Please examine the following record next.
Reported IC50 for "CCCCCCCCCCCC(=O)O[Si](C)(C)OC(=O)CCCCCCCCCCC" : what is it?
129

The reported numbers originate from patent EP1948196B1.
